Source: ChEMBL document CHEMBL1773004

Assay target: UniProt:Q14416
Sequence (Q14416 whole entry): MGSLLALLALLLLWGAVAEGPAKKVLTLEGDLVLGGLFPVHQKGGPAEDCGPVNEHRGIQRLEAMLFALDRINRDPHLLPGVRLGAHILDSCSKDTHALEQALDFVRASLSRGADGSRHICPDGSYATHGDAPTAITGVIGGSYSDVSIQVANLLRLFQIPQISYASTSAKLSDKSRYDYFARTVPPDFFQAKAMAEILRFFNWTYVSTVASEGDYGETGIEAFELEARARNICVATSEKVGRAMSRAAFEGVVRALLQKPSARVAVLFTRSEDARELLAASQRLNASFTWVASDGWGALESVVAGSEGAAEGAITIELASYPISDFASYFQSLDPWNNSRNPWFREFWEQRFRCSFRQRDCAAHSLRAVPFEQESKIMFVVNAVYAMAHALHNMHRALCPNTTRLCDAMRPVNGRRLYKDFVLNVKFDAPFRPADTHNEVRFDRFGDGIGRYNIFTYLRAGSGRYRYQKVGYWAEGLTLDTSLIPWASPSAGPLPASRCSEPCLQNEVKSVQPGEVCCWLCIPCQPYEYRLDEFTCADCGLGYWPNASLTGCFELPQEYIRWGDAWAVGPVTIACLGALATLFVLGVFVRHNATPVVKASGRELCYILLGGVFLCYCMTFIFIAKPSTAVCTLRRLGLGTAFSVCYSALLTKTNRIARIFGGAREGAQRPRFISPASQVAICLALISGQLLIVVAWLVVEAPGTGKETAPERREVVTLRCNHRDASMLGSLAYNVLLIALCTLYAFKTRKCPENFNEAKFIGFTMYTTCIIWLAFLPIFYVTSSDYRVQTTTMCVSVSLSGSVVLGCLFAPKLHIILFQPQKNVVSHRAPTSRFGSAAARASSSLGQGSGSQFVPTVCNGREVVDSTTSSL
Protocol summary: Positive allosteric modulation of human mGluR2 expressed in HEK293 cells co-expressing Galpha15 G protein assessed as increase in glutamate-induced intracellular calcium release by FLIPR assay
pEC50: −log10 of the molar value.
Recorded pEC50 for the following compounds
Reported property: pEC50

>>> readout_number("COc1cc(C(F)(F)F)ccc1[C@@H]1CCN(Cc2nc3ncccc3n2C)C[C@@H]1C")
7.12
>>> readout_number("C[C@H]1CN(Cc2nc3ncccc3n2C)CC[C@H]1c1ccc(C(F)(F)F)cc1F")
8.52
>>> readout_number("Cn1c(CN2CCC(c3ccc(C(F)(F)F)cc3)CC2)nc2ncccc21")
7.37
